Reference source for all entries: patent US20060223792A1

# target-under-test: recombinant human LTA4 hydrolase (rhLTA4H) (Homo sapiens, UniProt P09960)
# Construct: made in house; host or cells: Spodoptera frugiperda (Sf-9) cells, baculovirus (pFastBac1)
# Sequence (P09960 whole entry): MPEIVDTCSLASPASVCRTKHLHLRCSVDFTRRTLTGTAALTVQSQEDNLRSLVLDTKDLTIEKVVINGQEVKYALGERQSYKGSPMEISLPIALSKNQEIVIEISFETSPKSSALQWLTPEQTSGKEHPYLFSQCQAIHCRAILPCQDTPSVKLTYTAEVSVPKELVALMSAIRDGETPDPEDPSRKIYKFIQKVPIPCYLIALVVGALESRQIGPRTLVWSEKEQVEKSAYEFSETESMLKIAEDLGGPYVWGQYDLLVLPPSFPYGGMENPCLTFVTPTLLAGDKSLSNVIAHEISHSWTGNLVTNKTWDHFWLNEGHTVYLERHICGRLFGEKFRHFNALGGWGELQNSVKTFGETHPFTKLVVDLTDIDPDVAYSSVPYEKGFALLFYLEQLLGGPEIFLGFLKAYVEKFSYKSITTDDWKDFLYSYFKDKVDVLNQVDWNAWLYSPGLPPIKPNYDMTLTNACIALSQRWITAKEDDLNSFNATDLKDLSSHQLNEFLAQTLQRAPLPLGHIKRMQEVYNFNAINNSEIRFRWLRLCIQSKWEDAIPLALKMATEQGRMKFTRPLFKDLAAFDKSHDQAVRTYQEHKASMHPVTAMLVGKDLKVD
# test-protocol: Recombinant human LTA4 hydrolase assay for LTA4 hydrolase inhibitor activity
# Type: biochemical
# run-conditions: recombinant human LTA4H, LTB4 quantified by enzyme-linked immunoassay; average of one to three determinations; read-out: IC50
pIC50: −log10 of the molar value.
Quick rule: pIC50 of at least 7 means rule met, below that means rule not met.

compound | answer-label
COC(=O)C1CCN(CCc2ccc(OCC(O)c3ccccc3)cc2)CC1 (stereo not shown) [Example 76] | rule met
CC(C(=O)Oc1ccc(OCCN2CCCCC2)cc1)c1ccccc1 (stereo not shown) [Example 22] | rule met
O=C(Nc1ccccc1)Oc1ccc(OCCN2CCCCC2)cc1 [Example 15] | rule met
CCN(CCc1ccc(OC(=O)Nc2ccccc2)cc1)C1CCCCC1 [Example 59] | rule met
Fc1cccc(CCOc2ccc(OCCN3CCCCC3)cc2)c1 [Example 165] | rule not met
N#CCCCN(CCc1ccc(OCCc2ccccc2)cc1)C1CC1 [Example 33] | rule met

* * *

# target-under-test: recombinant human LTA4 hydrolase (rhLTA4H) (Homo sapiens)
# Construct: made in house; host or cells: Spodoptera frugiperda (Sf-9) cells, baculovirus (pFastBac1)
# test-protocol: Recombinant human LTA4 hydrolase assay for LTA4 hydrolase inhibitor activity
# Format: biochemical
# run-conditions: recombinant human LTA4H, LTB4 quantified by enzyme-linked immunoassay; average of one to three determinations; read-out: IC50
Counter-ions that a name gives are not always drawn.
Returns: string. Value is T if measured IC50 is below 10 nM, and F if it is greater than or equal to it.

compound | answer-label
CN(C)C(=O)Oc1ccc(OCCN2CCC(O)(c3ccccc3)CC2)cc1 | F
CCOC(=O)C1CCN(Cc2ccc(OCCCc3ccccc3)cc2)CC1 | F
O=C1CCCCN1C1CCN(CCc2ccc(OCCc3ccccc3)cc2)CC1 | F
O=C(Nc1ccccc1)Oc1ccc(CCCN2CCC(O)(c3ccccc3)CC2)cc1 | T
O=C(Nc1ccccc1)Oc1ccc(CCN2CCCCCC2)cc1 | T
O=C(Nc1ccccc1)Oc1ccc(CCCN2CCCCC2)cc1 | F
NC(=O)C1CCN(CCc2ccc(OCCc3ccccc3)cc2)CC1 | F
N#CC1CCN(CCc2ccc(OCCc3ccccc3)cc2)CC1 | F
O=C1CN(CCc2ccc(OCCc3ccccc3)cc2)CCN1 | F
Fc1ccc(CCOc2ccc(OCCN3CCCCC3)cc2)cc1 | F
O=C(Oc1ccc(OCCN2CCCCC2)cc1)c1cc2ccccc2[nH]1 | F
O=C(O)CCN(CCc1ccc(OCCc2ccccc2)cc1)C1CC1 [Example 35, trifluoroacetic acid salt] | T
O=C(O)C1CCN(CCc2ccc(OCC(O)c3ccccc3)cc2)CC1 (stereo not drawn) | F
O=C(Oc1ccc(OCCN2CCCCC2)cc1)C1Cc2ccccc2C1 | F
OC1CCN(Cc2ccc(OCCc3ccccc3)cc2)CC1 | F
CCCN(CCc1ccc(OC(=O)Nc2ccccc2)cc1)CC1CC1 | T
c1ccc(CCOc2ccc(CCN3CCC(c4nnn[nH]4)CC3)cc2)cc1 | F
O=C1CCCCN1C1CCN(CCc2ccc(OCC(O)c3ccccc3)cc2)CC1 (stereo not drawn) | T
CCOC(=O)CCN(C)CCc1ccc(OCCc2ccccc2)cc1 | F
CCCC1CCN(CCOc2ccc(OC(=O)Nc3ccccc3)cc2)CC1 | T
